Sourced from PubChem BioAssay AID2060900

Items are presented alongside their recorded viability, T/C.
Tested on: 521955-158-R2-J5-PDC complex spheroids, viability
Assay: Anticancer human tumor 521955-158-R2-J5-PDC patient-derived pancreatic carcinoma cell line growth inhibition [RAS]
Conditions: second compound 0.000949 µM; first compound 0.1 µM; stronger effect = lower value
Metric: viability, T/C

INSERT INTO assay_data (compound, measured_on, metric, result) VALUES
  ('CC(C)n1nc(-c2ccc3oc(N)nc3c2)c2c(N)ncnc21 + CCn1c(-c2cc(N3CCN(C)CC3)cnc2C(C)OC)c2c3cc(ccc31)-c1csc(n1)CC(NC(=O)C1CC1C)C(=O)N1CCCC(N1)C(=O)OCC(C)(C)C2', '521955-158-R2-J5-PDC complex spheroids, viability', 'viability, T/C', '21.2%'),
  ('C[C@@H](NC(=O)c1ncnc(N)c1Cl)c1ncc(C(=O)Nc2cc(C(F)(F)F)c(Cl)cn2)s1 + CCn1c(-c2cc(N3CCN(C)CC3)cnc2C(C)OC)c2c3cc(ccc31)-c1csc(n1)CC(NC(=O)C1CC1C)C(=O)N1CCCC(N1)C(=O)OCC(C)(C)C2', '521955-158-R2-J5-PDC complex spheroids, viability', 'viability, T/C', '50.3%'),
  ('Nc1ccn(C2OC(CO)C(O)C2(F)F)c(=O)n1 (stereo not drawn) + CCn1c(-c2cccnc2C(C)OC)c2c3cc(ccc31)N1CCOC(CC(NC(=O)C(C(C)C)N(C)C(=O)C3(F)CCN(C(=O)C#CC(C)(C)N(C)C)CC3)C(=O)N3CCCC(N3)C(=O)OCC(C)(C)C2)C1', '521955-158-R2-J5-PDC complex spheroids, viability', 'viability, T/C', '56.8%'),
  ('O=C(c1ccc(F)c(F)c1Nc1ccc(I)cc1F)N1CC(O)([C@@H]2CCCCN2)C1 + CCn1c(-c2cccnc2C(C)OC)c2c3cc(ccc31)N1CCOC(CC(NC(=O)C(C(C)C)N(C)C(=O)C3(F)CCN(C(=O)C#CC(C)(C)N(C)C)CC3)C(=O)N3CCCC(N3)C(=O)OCC(C)(C)C2)C1', '521955-158-R2-J5-PDC complex spheroids, viability', 'viability, T/C', '36.1%'),
  ('CC(=O)OC12COC1CC(O)C1(C)C(=O)C(O)C3=C(C)C(OC(=O)C(O)C(NC(=O)OC(C)(C)C)c4ccccc4)CC(O)(C(OC(=O)c4ccccc4)C21)C3(C)C (stereo not drawn) + CCn1c(-c2cccnc2C(C)OC)c2c3cc(ccc31)N1CCOC(CC(NC(=O)C(C(C)C)N(C)C(=O)C3(F)CCN(C(=O)C#CC(C)(C)N(C)C)CC3)C(=O)N3CCCC(N3)C(=O)OCC(C)(C)C2)C1', '521955-158-R2-J5-PDC complex spheroids, viability', 'viability, T/C', '23%'),
  ('C[C@@H](NC(=O)c1ncnc(N)c1Cl)c1ncc(C(=O)Nc2cc(C(F)(F)F)c(Cl)cn2)s1 + CCn1c(-c2cccnc2C(C)OC)c2c3cc(ccc31)N1CCOC(CC(NC(=O)C(C(C)C)N(C)C(=O)C3(F)CCN(C(=O)C#CC(C)(C)N(C)C)CC3)C(=O)N3CCCC(N3)C(=O)OCC(C)(C)C2)C1', '521955-158-R2-J5-PDC complex spheroids, viability', 'viability, T/C', '100%'),
  ('CC(=O)OC12COC1CC(O)C1(C)C(=O)C(O)C3=C(C)C(OC(=O)C(O)C(NC(=O)OC(C)(C)C)c4ccccc4)CC(O)(C(OC(=O)c4ccccc4)C21)C3(C)C (stereo not drawn) + CCn1c(-c2cc(N3CCN(C)CC3)cnc2C(C)OC)c2c3cc(ccc31)-c1csc(n1)CC(NC(=O)C1CC1C)C(=O)N1CCCC(N1)C(=O)OCC(C)(C)C2', '521955-158-R2-J5-PDC complex spheroids, viability', 'viability, T/C', '23.3%'),
  ('CCC(CC)c1cc(NC2CCC(N)C2)n2nccc2n1 (stereo not drawn) + CCn1c(-c2cc(N3CCN(C)CC3)cnc2C(C)OC)c2c3cc(ccc31)-c1csc(n1)CC(NC(=O)C1CC1C)C(=O)N1CCCC(N1)C(=O)OCC(C)(C)C2', '521955-158-R2-J5-PDC complex spheroids, viability', 'viability, T/C', '50.8%');

###

Test system: 521955-158-R2-J5-PDC complex spheroids, viability
Assay: Anticancer human tumor 521955-158-R2-J5-PDC cell line growth inhibition [RAS];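 further: spheroids also contain HUVEC endothelial cells and mesenchymal stem cells as stroma; compound exposure lasted seven days before the viability read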
Details: second compound 1 µM; first compound 0.0316 µM; stronger effect = lower value
Recorded viability, T/C by entry
Metric: viability, T/C (%)

INSERT INTO results (compound, metric, quantitative_result) VALUES
  ('CC(C)NCC(C(=O)N1CCN(c2ncnc3c2C(C)CC3O)CC1)c1ccc(Cl)cc1 (stereo unspecified) + C#Cc1c(F)ccc2cc(O)cc(-c3ncc4c(N5CC6CCC(C5)N6)nc(OCC56CCCN5CC(F)C6)nc4c3F)c12', 'viability, T/C', 43.8),
  ('CCN1CCN(Cc2ccc(Nc3ncc(F)c(-c4cc(F)c5nc(C)n(C(C)C)c5c4)n3)nc2)CC1 + C=CC(=O)N1CCN(c2nc(OCC3CCCN3C)nc3c(F)c(-c4nc(N)cc(C)c4C(F)(F)F)c(Cl)cc23)C(C)C1', 'viability, T/C', 81.8),
  ('CC(C)n1nc(-c2ccc3oc(N)nc3c2)c2c(N)ncnc21 + C#Cc1c(F)ccc2cc(O)cc(-c3ncc4c(N5CC6CCC(C5)N6)nc(OCC56CCCN5CC(F)C6)nc4c3F)c12', 'viability, T/C', 13.7),
  ('NC1c2ccccc2OC12CCN(c1cnc3c(N4CCCc5ncccc54)n[nH]c3n1)CC2 (stereo unspecified) + C=CC(=O)N1CCN(c2nc(OCC3CCCN3C)nc3c(F)c(-c4nc(N)cc(C)c4C(F)(F)F)c(Cl)cc23)C(C)C1', 'viability, T/C', 70.3),
  ('CC(Nc1ccc2c(c1)OCCn1cc(N3C(=O)OCC3C(F)F)nc1-2)C(N)=O (stereo unspecified) + C=CC(=O)N1CCN(c2nc(OCC3CCCN3C)nc3c(F)c(-c4nc(N)cc(C)c4C(F)(F)F)c(Cl)cc23)C(C)C1', 'viability, T/C', 124),
  ('CCC(CC)c1cc(NC2CCC(N)C2)n2nccc2n1 (stereo unspecified) + C#Cc1c(F)ccc2cc(O)cc(-c3ncc4c(N5CC6CCC(C5)N6)nc(OCC56CCCN5CC(F)C6)nc4c3F)c12', 'viability, T/C', 47.6);

###

Tested on: 521955-158-R2-J5-PDC complex spheroids, viability
Assay: Anticancer human tumor 521955-158-R2-J5-PDC cell line growth inhibition [RAS];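 further: spheroids also contain HUVEC endothelial cells and mesenchymal stem cells as stroma; compound exposure lasted seven days before the viability read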
Conditions: second compound 0.316 µM; first compound 0.1 µM; stronger effect = lower value
List of viability, T/C values.
Metric: viability, T/C (%)

INSERT INTO results (compound, measured_on, metric, unit_annotation, quantitative_result) VALUES
  ('CC(=O)OC12COC1CC(O)C1(C)C(=O)C(O)C3=C(C)C(OC(=O)C(O)C(NC(=O)OC(C)(C)C)c4ccccc4)CC(O)(C(OC(=O)c4ccccc4)C21)C3(C)C (stereo not drawn) + C#Cc1c(F)ccc2cc(O)cc(-c3ncc4c(N5CC6CCC(C5)N6)nc(OCC56CCCN5CC(F)C6)nc4c3F)c12', '521955-158-R2-J5-PDC complex spheroids, viability', 'viability, T/C', '%', 31.7),
  ('C[C@@H](NC(=O)c1ncnc(N)c1Cl)c1ncc(C(=O)Nc2cc(C(F)(F)F)c(Cl)cn2)s1 + C#Cc1c(F)ccc2cc(O)cc(-c3ncc4c(N5CC6CCC(C5)N6)nc(OCC56CCCN5CC(F)C6)nc4c3F)c12', '521955-158-R2-J5-PDC complex spheroids, viability', 'viability, T/C', '%', 55.7),
  ('CCC(CC)c1cc(NC2CCC(N)C2)n2nccc2n1 (stereo not drawn) + C#Cc1c(F)ccc2cc(O)cc(-c3ncc4c(N5CC6CCC(C5)N6)nc(OCC56CCCN5CC(F)C6)nc4c3F)c12', '521955-158-R2-J5-PDC complex spheroids, viability', 'viability, T/C', '%', 72.5),
  ('CC(C)NCC(C(=O)N1CCN(c2ncnc3c2C(C)CC3O)CC1)c1ccc(Cl)cc1 (stereo not drawn) + C#Cc1c(F)ccc2cc(O)cc(-c3ncc4c(N5CC6CCC(C5)N6)nc(OCC56CCCN5CC(F)C6)nc4c3F)c12', '521955-158-R2-J5-PDC complex spheroids, viability', 'viability, T/C', '%', 43.2),
  ('CCC(CC)c1cc(NC2CCC(N)C2)n2nccc2n1 (stereo not drawn) + C=CC(=O)N1CCN(c2nc(OCC3CCCN3C)nc3c(F)c(-c4nc(N)cc(C)c4C(F)(F)F)c(Cl)cc23)C(C)C1', '521955-158-R2-J5-PDC complex spheroids, viability', 'viability, T/C', '%', 105),
  ('Nc1ccn(C2OC(CO)C(O)C2(F)F)c(=O)n1 (stereo not drawn) + C#Cc1c(F)ccc2cc(O)cc(-c3ncc4c(N5CC6CCC(C5)N6)nc(OCC56CCCN5CC(F)C6)nc4c3F)c12', '521955-158-R2-J5-PDC complex spheroids, viability', 'viability, T/C', '%', 23.4),
  ('O=C(c1ccc(F)c(F)c1Nc1ccc(I)cc1F)N1CC(O)([C@@H]2CCCCN2)C1 + C=CC(=O)N1CCN(c2nc(OCC3CCCN3C)nc3c(F)c(-c4nc(N)cc(C)c4C(F)(F)F)c(Cl)cc23)C(C)C1', '521955-158-R2-J5-PDC complex spheroids, viability', 'viability, T/C', '%', 48.1),
  ('Cc1nc(N2CCC3(CC2)COC(C)C3N)c(CO)nc1Sc1ccnc(N)c1Cl (stereo not drawn) + C=CC(=O)N1CCN(c2nc(OCC3CCCN3C)nc3c(F)c(-c4nc(N)cc(C)c4C(F)(F)F)c(Cl)cc23)C(C)C1', '521955-158-R2-J5-PDC complex spheroids, viability', 'viability, T/C', '%', 80.3),
  ('CC(Nc1ccc2c(c1)OCCn1cc(N3C(=O)OCC3C(F)F)nc1-2)C(N)=O (stereo not drawn) + C=CC(=O)N1CCN(c2nc(OCC3CCCN3C)nc3c(F)c(-c4nc(N)cc(C)c4C(F)(F)F)c(Cl)cc23)C(C)C1', '521955-158-R2-J5-PDC complex spheroids, viability', 'viability, T/C', '%', 90.1),
  ('CC1(O)CCCC1n1c(=O)c(C(F)F)cc2cnc(NC3CCN(S(C)(=O)=O)CC3)nc21 (stereo not drawn) + C=CC(=O)N1CCN(c2nc(OCC3CCCN3C)nc3c(F)c(-c4nc(N)cc(C)c4C(F)(F)F)c(Cl)cc23)C(C)C1', '521955-158-R2-J5-PDC complex spheroids, viability', 'viability, T/C', '%', 79.3),
  ('CC1(O)CCCC1n1c(=O)c(C(F)F)cc2cnc(NC3CCN(S(C)(=O)=O)CC3)nc21 (stereo not drawn) + C#Cc1c(F)ccc2cc(O)cc(-c3ncc4c(N5CC6CCC(C5)N6)nc(OCC56CCCN5CC(F)C6)nc4c3F)c12', '521955-158-R2-J5-PDC complex spheroids, viability', 'viability, T/C', '%', 37.4),
  ('CC(=O)OC12COC1CC(O)C1(C)C(=O)C(O)C3=C(C)C(OC(=O)C(O)C(NC(=O)OC(C)(C)C)c4ccccc4)CC(O)(C(OC(=O)c4ccccc4)C21)C3(C)C (stereo not drawn) + C=CC(=O)N1CCN(c2nc(OCC3CCCN3C)nc3c(F)c(-c4nc(N)cc(C)c4C(F)(F)F)c(Cl)cc23)C(C)C1', '521955-158-R2-J5-PDC complex spheroids, viability', 'viability, T/C', '%', 33.9),
  ('O=C(c1ccc(F)c(F)c1Nc1ccc(I)cc1F)N1CC(O)([C@@H]2CCCCN2)C1 + C#Cc1c(F)ccc2cc(O)cc(-c3ncc4c(N5CC6CCC(C5)N6)nc(OCC56CCCN5CC(F)C6)nc4c3F)c12', '521955-158-R2-J5-PDC complex spheroids, viability', 'viability, T/C', '%', 36);
